Target: AKT2 (Homo sapiens)
Sequence (P31751 whole entry): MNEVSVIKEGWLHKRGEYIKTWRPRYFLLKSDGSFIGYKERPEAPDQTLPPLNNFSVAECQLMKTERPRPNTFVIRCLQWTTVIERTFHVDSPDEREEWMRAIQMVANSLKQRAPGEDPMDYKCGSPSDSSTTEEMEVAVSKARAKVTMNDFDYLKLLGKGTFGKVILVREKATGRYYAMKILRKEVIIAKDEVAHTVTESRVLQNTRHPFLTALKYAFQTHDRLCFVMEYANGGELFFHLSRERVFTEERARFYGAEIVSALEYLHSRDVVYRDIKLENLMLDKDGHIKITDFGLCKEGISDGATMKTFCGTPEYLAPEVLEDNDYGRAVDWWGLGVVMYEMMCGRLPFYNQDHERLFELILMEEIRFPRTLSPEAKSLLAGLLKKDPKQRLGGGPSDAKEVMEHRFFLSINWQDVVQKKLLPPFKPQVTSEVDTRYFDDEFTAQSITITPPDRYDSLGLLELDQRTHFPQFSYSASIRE
Assay: Live cell AKT2 target engagement by NanoBRET competitive probe displacement
Settings: HEK293 cells transfected with kinase-NanoLuciferase fusion, 2 h at 37° C.
METRIC NAME: pIC50
Give bare numbers, as −log10 of the molar value.

Check out these entries, answers already filled in.
compound="C=CC(=O)N1CCC(N[C@@H]2c3ccc(-n4c(-c5cccnc5N)nc5ccc(-n6ccc(F)n6)nc54)cc3CC2F)C[C@@H]1C (single isomer, unassigned) [Example 272]" metric_name=pIC50 value_observed=7.04
compound="C=CC(=O)N1CC2CC1CCC2N[C@H]1CCc2cc(-n3c(-c4cccnc4N)nc4ccc(-n5cccn5)nc43)ccc21 (some centres unmarked)" metric_name=pIC50 value_observed=7.25
compound="C#CC1CC(N[C@H]2CCc3cc(-n4c(-c5cccnc5N)nc5ccc(-n6cccn6)nc54)ccc32)CCN1C(=O)C=C (single isomer, unassigned) [Example 111]" metric_name=pIC50 value_observed=6.84
compound=C=C(OC)C(=O)Nc1ccccc1C(=O)N[C@H]1CCc2cc(-n3c(-c4cccnc4N)nc4ccc(-n5cccn5)nc43)ccc21 metric_name=pIC50 value_observed=6.78
compound=C=CC(=O)N1CCC(N[C@H]2CCc3cc(-n4c(-c5cccnc5N)nc5ccc(-c6cnn(C(F)F)c6)nc54)ccc32)CC1 metric_name=pIC50 value_observed=7.54

Take each entry in turn and give its pIC50.
1. C=CC(=O)N1CCC(N[C@H]2CCc3cc(-n4c(-c5cccnc5N)nc5ccc(-n6ccc(COC)n6)nc54)ccc32)CC1
2. C=CC(=O)N1CCC(N[C@H]2CCc3cc(-n4c(-c5cccnc5N)nc5ccc(-n6cccn6)nc54)ccc32)C[C@@H]1C (single isomer, unassigned) [Example 66]
3. C=CC(=O)N1CCC(N[C@H]2CCc3cc(-n4c(-c5cccnc5N)nc5ccc(-n6nccn6)nc54)ccc32)CC1
4. CN(CC#N)C(=O)N1CCC(N[C@H]2CCc3cc(-n4c(-c5cccnc5N)nc5ccc(-n6cccn6)nc54)ccc32)CC1
5. C=CC(=O)N1CCC(N[C@H]2CCc3cc(-n4c(-c5cccnc5N)nc5ccc(-n6cccn6)nc54)ccc32)C(F)(F)C1 (single isomer, unassigned) [Example 56]

// result
1: 7.09; 2: 7.29; 3: 6.82; 4: 7.37; 5: 6.98

Parameter requested: pIC50. Apply to each item below.
1. C=CC(=O)NCc1ccccc1C(=O)N[C@H]1CCc2cc(-n3c(-c4cccnc4N)nc4ccc(-n5nccn5)nc43)ccc21
2. C=CC(=O)N1CCC(N[C@H]2CCc3cc(-n4c(-c5cccnc5N)nc5ccc(-n6cccn6)nc54)ccc32)C(C)C1 (single isomer, unassigned) [Example 100]
3. C=CC(=O)N1C[C@H]2C[C@@H]1CC2N[C@H]1CCc2cc(-n3c(-c4cccnc4N)nc4ccc(-n5cccn5)nc43)ccc21 (single isomer, unassigned) [Example 137]
4. C=CC(=O)N1CC2CC[C@H]1CC2N[C@H]1CCc2cc(-n3c(-c4cccnc4N)nc4ccc(-n5cccn5)nc43)ccc21 (single isomer, unassigned) [Example 134]
5. C=CC(=O)N1CCC(N[C@@H]2c3ccc(-n4c(-c5ccccc5)nc5ccc(-n6cccn6)nc54)cc3CC2F)CC1C(F)F (single isomer, unassigned) [Example 328]
6. C=CC(=O)N1CCC(N[C@H]2CCc3cc(-n4c(-c5cccnc5N)nc5ccc(-n6cccn6)nc54)ccc32)C[C@H]1C (single isomer, unassigned) [Example 63]
7. C=CC(=O)N1CCC(N[C@@H]2c3ccc(-n4c(-c5cccnc5N)nc5ccc(-n6ccc(C#N)n6)nc54)cc3CC2F)CC1 (single isomer, unassigned) [Example 312]

// result
[6.82, 6.87, 6.61, 5.57, 7.04, 6.61, 6.99]

Please state pIC50 for every compound in the list that follows.
1. C=CC(=O)N1CCc2cccc(C(=O)N[C@H]3CCc4cc(-n5c(-c6cccnc6N)nc6ccc(-n7cccn7)nc65)ccc43)c21
2. C=CC(=O)N1CCC(N[C@H]2CCc3cc(-n4c(-c5cccnc5N)nc5ccc(-n6ccc(OC)n6)nc54)ccc32)CC1

// result
5.83
7.61

// query Item C#CC1CC(N[C@H]2CCc3cc(-n4c(-c5cccnc5N)nc5ccc(-n6cccn6)nc54)ccc32)CCN1C(=O)C=C (single isomer, unassigned) [Example 114] has what recorded pIC50?
// result 7.66
